System: c-myc in 22RV-1 cells
Experiment: Human c-myc ELISA assay
Assay type: cell-based
Details: Homo sapiens, 22Rv1, 18 h, read-out: Degradation of BRD4: Maximum inhibition (%) c-Myc ELISA in 22RV1 cells
Below, each of the compounds is paired with its reported Emax value.

{"Compound": "Cc1ncsc1-c1ccc([C@H](C)NC(=O)[C@@H]2C[C@@H](O)CN2C(=O)[C@@H](NC(=O)COc2cc(F)cc(O[C@H]3C[C@H](NC(=O)C[C@@H]4N=C(c5ccc(Cl)cc5)c5c(sc(C)c5C)-n5c(C)nnc54)C3)c2)C(C)(C)C)cc1", "Outcome Measure": "Emax", "Recorded Value": "98%"}
{"Compound": "Cc1sc2c(c1C)C(c1ccc(Cl)cc1)=N[C@@H](CC(=O)N[C@H]1C[C@H](Oc3ccc(CC(=O)N[C@H](C(=O)N4C[C@H](O)C[C@H]4C(=O)N[C@@H](C)c4ccc(-n5ccnc5C)cc4)C(C)(C)C)cc3)C1)c1nnc(C)n1-2", "Outcome Measure": "Emax", "Recorded Value": "95.9%"}

// query Emax value for entry Cc1ncsc1-c1ccc(CNC(=O)[C@@H]2C[C@@H](O)CN2C(=O)[C@@H](NC(=O)COCCn2ccc(-c3ccc([C@@H](C)NC(=O)C[C@@H]4N=C(c5ccc(Cl)cc5)c5c(sc(C)c5C)-n5c(C)nnc54)cc3)cc2=O)C(C)(C)C)cc1
37%

What do you get for Cc1ncsc1-c1ccc([C@H](C)NC(=O)[C@H]2C[C@H](O)CN2C(=O)[C@@H](NC(=O)CN2CCC(O[C@H]3C[C@H](NC(=O)C[C@@H]4N=C(c5ccc(Cl)cc5)c5c(sc(C)c5C)-n5c(C)nnc54)C3)CC2)C(C)(C)C)cc1 ?
< 5%

What do you get for Cc1ncsc1-c1ccc(CNC(=O)[C@@H]2C[C@@H](O)CN2C(=O)[C@H](c2cc(OCCN3CC[C@@H](NC(=O)C[C@@H]4N=C(c5ccc(Cl)cc5)c5c(sc(C)c5C)-n5c(C)nnc54)C3)no2)C(C)C)cc1 (single isomer, unassigned) ?
43.6%

###

Test system: c-myc in 22RV-1 cells
Assay: Human c-myc ELISA assay
Assay type: cell-based
Conditions: Homo sapiens, 22Rv1, 18 h, read-out: Degradation of BRD4: Maximum inhibition (%) c-Myc ELISA in 22RV1 cells
Method: 22RV-1 cells are seeded at 30,000 cells/well at a volume of 75 μL/well in RPMI+10% FBS media in 96-well plates and grown overnight at 37 C. Cells are dosed with compounds at 4× concentration diluted in 0.4% DMSO; compounds are serially diluted 1:3 for 8-point dose curve. 25 ul of compounds is added to cells for a final concentration starting at 300 nM-0.3 nM or 1 uM-1 nM in 0.1% DMSO and incubated for 18 hrs. […] Data is analyzed and plotted using GraphPad Prism software. […]
Below, each of the compounds is paired with its reported Emax value.

{"Compound": "Cc1ncsc1-c1ccc([C@H](C)NC(=O)[C@@H]2C[C@@H](O)CN2C(=O)[C@@H](NC(=O)COCCOCCCNC(=O)C[C@@H]2N=C(c3ccc(Cl)cc3)c3c(sc(C)c3C)-n3c(C)nnc32)C(C)(C)C)cc1 [Example 147]", "Emax": "98.5%"}

I'm curious: which Emax was measured for Cc1ncsc1-c1ccc(CNC(=O)[C@@H]2C[C@@H](O)CN2C(=O)[C@H](C(C)C)n2cc(-c3ccnc(O[C@H]4C[C@@H](NC(=O)C[C@@H]5N=C(c6ccc(Cl)cc6)c6c(sc(C)c6C)-n6c(C)nnc65)C4)c3)cn2)cc1 [Example 178] tested on c-myc in 22RV-1 cells?
99%
